test.protocol: Biodistribution in mouse Cloudman S91 tumor bearing DBA2 mouse intestine at 10 mg/kg, ip after 6 hrs
Assay type: ADME, organism-based
Parameters: dose 10 mg/kg, route intraperitoneal
stated.conditions: read-out: Drug uptake
value.kind: concentration at 6 h (ng/g)
A number alone suffices; assume ng/g.

Ask: Identify measured concentration at 6 h corresponding to `CCNS(=O)(=O)c1ccc(Cl)c(-c2c3nc(c(-c4c(Cl)ccc(S(=O)(=O)NCC)c4Cl)c4ccc([nH]4)c(-c4c(Cl)ccc(S(=O)(=O)NCC)c4Cl)c4nc(c(-c5c(Cl)ccc(S(=O)(=O)NCC)c5Cl)c5ccc2[nH]5)CC4)CC3)c1Cl`
Result: 1800
